Procedure Summary: Metabolic stability in mouse liver microsomes assessed as compound remaining incubated for 10 mins in presence of NADPH
Format: ADME, Microsome
Condition Details: read-out: Stability
Lab note: compare remaining at 10 min with 90%, writing t if less and f if equal or more.

Field: example entries. Status: answers known.
Smiles Input: Cc1ccc(C2=C(n3nn[nH]c3=O)C(=O)N[C@@](c3ccc(OCCCC(F)(F)F)cc3)(C(F)(F)F)C2)cc1
Discrete Label: f
--
Smiles Input: Cc1ccc(C2=C(n3ncnn3)C(=O)N[C@@](c3ccc(OCCCC(F)(F)F)cc3)(C(F)(F)F)C2)cc1
Discrete Label: t
--
Smiles Input: Cc1ccc(C2=C(n3ccnn3)C(=O)N[C@@](c3ccc(OCCCC(F)(F)F)cc3)(C(F)(F)F)C2)cc1
Discrete Label: t

Now look at this entry.
Exam item: Is 90% strictly greater than the molecule's reported remaining at 10 min? molecule: Cc1ccc(C2=C(c3nnn[nH]3)C(=O)N[C@@](c3ccc(OCCCC(F)(F)F)cc3)(C(F)(F)F)C2)nc1
Marked response: t

====

Procedure Summary: Oral bioavailability in C57BL6 mouse at 0.1 mg/kg measured after 24 hrs by LC-MS/MS analysis
Format: ADME, organism-based
Condition Details: in vivo
Quantity Kind: bioavailability (%)
Numbers only, in %.

Exam item: Find the recorded bioavailability belonging to O=C1N[C@@](c2ccc(OCCCC(F)(F)F)cc2F)(C(F)(F)F)CC(c2ccn(CC3CC3)n2)=C1n1nn[nH]c1=O and report it.
Marked response: 26

====

Procedure Summary: Metabolic stability in mouse liver microsomes assessed as compound remaining incubated for 10 mins in presence of NADPH
Type: ADME, Microsome
Condition Details: read-out: Stability
Exercise: for every item that follows, state its recorded remaining at 10 min.
Give bare numbers, in %.

Record excerpt, results attached:
Smiles Input: Cc1ccc(C2=C(n3cnnn3)C(=O)N[C@@](c3ccc(OCCCC(F)(F)F)cc3)(C(F)(F)F)C2)cc1
Unit Annotation: %
Numeric Readout: 60
//
Smiles Input: Cc1ccc(C2=C(n3ccnc3)C(=O)N[C@@](c3ccc(OCCCC(F)(F)F)cc3)(C(F)(F)F)C2)cc1
Unit Annotation: %
Numeric Readout: 75
//
Smiles Input: O=C1N[C@@](c2ccc(OCCCC(F)(F)F)cc2F)(C(F)(F)F)CC(c2ccc(C3CC3)s2)=C1c1nnn[nH]1
Unit Annotation: %
Numeric Readout: 83
//
Smiles Input: O=C1N[C@@](c2ccc(OCCCC(F)(F)F)cc2F)(C(F)(F)F)CC(c2ncc(C3CC3)s2)=C1c1nnn[nH]1
Unit Annotation: %
Numeric Readout: 92

Consider the following items and state reported remaining at 10 min for each.
1. CCc1ccc(C2=C(n3nn[nH]c3=O)C(=O)N[C@@](c3ccc(OCCCC(F)(F)F)cc3F)(C(F)(F)F)C2)s1
2. O=C1N[C@@](c2ccc(OCCCC(F)(F)F)cc2F)(C(F)(F)F)CC(c2ccn(CC3CC3)n2)=C1c1nnn[nH]1

Marked response:
[100, 94]

Exam item: Find the recorded remaining at 10 min belonging to O=C1N[C@@](c2ccc(OCCCC(F)(F)F)cc2F)(C(F)(F)F)CC(c2ccn(CC3CC3)n2)=C1n1nn[nH]c1=O and report it.
Marked response: 97

====

Procedure Summary: AUC (0 to 24 hrs) in Beagle dog at 1 mg/kg,iv measured after 24 hrs by LC-MS/MS analysis
Assay type: ADME, organism-based, Canis lupus familiaris
Set-up: dose 1 mg/kg, time 24 hrs, route iv
Condition Details: in vivo
Quantity Kind: AUC(0-t) at 24 h (µM·h)
One number for each entry, in µM·h.

Exam item: Find the recorded AUC(0-t) at 24 h belonging to O=C1N[C@@](c2ccc(OCCCC(F)(F)F)cc2F)(C(F)(F)F)CC(c2ccn(CC3CC3)n2)=C1n1nn[nH]c1=O and report it.
Marked response: 12

====

Procedure Summary: Clearance in C57BL6 mouse at 0.1 mg/kg,po measured after 24 hrs by LC-MS/MS analysis
Format: ADME, organism-based
Condition Details: in vivo
Quantity Kind: CL/F (mL/min/kg)
Give bare numbers, in mL/min/kg.

Exam item: Find the recorded CL/F belonging to O=C1N[C@@](c2ccc(OCCCC(F)(F)F)cc2F)(C(F)(F)F)CC(c2ccn(CC3CC3)n2)=C1n1nn[nH]c1=O and report it.
Marked response: 12.5

====

Procedure Summary: Half life in Sprague-Dawley rat at 3 mg/kg,po measured after 24 hrs by LC-MS/MS analysis
Type: ADME, organism-based
Condition Details: in vivo
Quantity Kind: half-life (h)
One number for each entry, in h.

Exam item: Find the recorded half-life belonging to O=C1N[C@@](c2ccc(OCCCC(F)(F)F)cc2F)(C(F)(F)F)CC(c2ccn(CC3CC3)n2)=C1n1nn[nH]c1=O [BMS-986172] and report it.
Marked response: 2.5

====

Exercise: for every item that follows, state its recorded remaining at 10 min.
Procedure Summary: Metabolic stability in human liver microsomes assessed as compound remaining incubated for 10 mins in presence of NADPH
Format: ADME, Microsome
Condition Details: read-out: Stability
Answers are plain numbers, in %.

Record excerpt, results attached:
Smiles Input: O=C1N[C@@](c2ccc(OCCCC(F)(F)F)cc2F)(C(F)(F)F)CC(c2ncc(C3CC3)s2)=C1n1nn[nH]c1=O
Numeric Readout: 99
//
Smiles Input: O=C1N[C@@](c2ccc(OCCCC(F)(F)F)cc2F)(C(F)(F)F)CC(c2ccn(CC3CC3)n2)=C1n1nn[nH]c1=O
Numeric Readout: 100
//
Smiles Input: Cc1ccc(C2=C(n3cnnn3)C(=O)N[C@@](c3ccc(OCCCC(F)(F)F)cc3)(C(F)(F)F)C2)cc1
Numeric Readout: 100
//
Smiles Input: O=C1N[C@@](c2ccc(OCCCC(F)(F)F)cc2F)(C(F)(F)F)CC(c2ncc(C3CC3)s2)=C1c1nnn[nH]1
Numeric Readout: 97
//
Smiles Input: Cc1ccc(C2=C(n3nn[nH]c3=O)C(=O)N[C@@](c3ccc(OCCCC(F)(F)F)cc3)(C(F)(F)F)C2)cc1
Numeric Readout: 100

Consider the following items and state reported remaining at 10 min for each.
1. O=C1N[C@@](c2ccc(OCCCC(F)(F)F)cc2F)(C(F)(F)F)CC(c2ccn(CC3CC3)n2)=C1c1nnn[nH]1
2. Cc1ccc(C2=C(n3ncnn3)C(=O)N[C@@](c3ccc(OCCCC(F)(F)F)cc3)(C(F)(F)F)C2)cc1
3. Cc1ccc(C2=C(n3ccnn3)C(=O)N[C@@](c3ccc(OCCCC(F)(F)F)cc3)(C(F)(F)F)C2)cc1

Marked response:
1: 100; 2: 93; 3: 76

Consider the following items and state reported remaining at 10 min for each.
1. Cc1ccc(C2=C(n3ccnc3)C(=O)N[C@@](c3ccc(OCCCC(F)(F)F)cc3)(C(F)(F)F)C2)cc1
2. Cc1ccc(C2=C(c3nnn[nH]3)C(=O)N[C@@](c3ccc(OCCCC(F)(F)F)cc3)(C(F)(F)F)C2)nc1
3. O=C1N[C@@](c2ccc(OCCCC(F)(F)F)cc2F)(C(F)(F)F)CC(c2ccc(C3CC3)s2)=C1c1nnn[nH]1
4. CCc1ccc(C2=C(n3nn[nH]c3=O)C(=O)N[C@@](c3ccc(OCCCC(F)(F)F)cc3F)(C(F)(F)F)C2)s1

Marked response:
[78, 100, 88, 93]

====

Procedure Summary: Metabolic stability in cynomolgus monkey liver microsomes assessed as half life in presence of UDPGA by glucuronidation assay
Assay type: ADME, Macaca fascicularis, Microsome
Quantity Kind: half-life

Record excerpt, results attached:
Compound: O=C1N[C@@](c2ccc(OCCCC(F)(F)F)cc2F)(C(F)(F)F)CC(c2ccn(CC3CC3)n2)=C1n1nn[nH]c1=O [BMS-986172]
Result: > 120 min

Compound: Cc1ccc(C2=C(n3ncnn3)C(=O)N[C@@](c3ccc(OCCCC(F)(F)F)cc3)(C(F)(F)F)C2)cc1
Result: > 120 min

Here is another compound to look at.
Exam item: Find the recorded half-life belonging to O=C1N[C@@](c2ccc(OCCCC(F)(F)F)cc2F)(C(F)(F)F)CC(c2ncc(C3CC3)s2)=C1c1nnn[nH]1 and report it.
Marked response: 14 min

====

Procedure Summary: Oral bioavailability in Beagle dog at 3 mg/kg measured after 24 hrs by LC-MS/MS analysis
Type: ADME, organism-based, Canis lupus familiaris
Condition Details: in vivo
Quantity Kind: bioavailability (%)
Numbers only, in %.

Exam item: Find the recorded bioavailability belonging to O=C1N[C@@](c2ccc(OCCCC(F)(F)F)cc2F)(C(F)(F)F)CC(c2ccn(CC3CC3)n2)=C1n1nn[nH]c1=O and report it.
Marked response: 30

====

Exercise: for every item that follows, state its recorded half-life.
Procedure Summary: Metabolic stability in human liver microsomes assessed as half life in presence of UDPGA by glucuronidation assay
Format: ADME, Microsome

Record excerpt, results attached:
Smiles Input: Cc1ccc(C2=C(n3ncnn3)C(=O)N[C@@](c3ccc(OCCCC(F)(F)F)cc3)(C(F)(F)F)C2)cc1
Result: > 2 h
//
Smiles Input: O=C1N[C@@](c2ccc(OCCCC(F)(F)F)cc2F)(C(F)(F)F)CC(c2ncc(C3CC3)s2)=C1c1nnn[nH]1
Result: 1.82 h

Consider the following items and state reported half-life for each.
1. Cc1ccc(C2=C(n3nn[nH]c3=O)C(=O)N[C@@](c3ccc(OCCCC(F)(F)F)cc3)(C(F)(F)F)C2)cc1
2. O=C1N[C@@](c2ccc(OCCCC(F)(F)F)cc2F)(C(F)(F)F)CC(c2ccn(CC3CC3)n2)=C1n1nn[nH]c1=O
3. O=C1N[C@@](c2ccc(OCCCC(F)(F)F)cc2F)(C(F)(F)F)CC(c2ccn(CC3CC3)n2)=C1c1nnn[nH]1
4. Cc1ccc(C2=C(n3ccnn3)C(=O)N[C@@](c3ccc(OCCCC(F)(F)F)cc3)(C(F)(F)F)C2)cc1

Marked response:
1. 1.57 h
2. > 2 h
3. > 2 h
4. > 2 h
